- Assay summary: mn = molality of the nth substance listed, in mol/kg
- Applied conditions: 308.15 K; 100 kPa; Liquid; Frequency=3 MHz; Sing-around technique in a fixed-path interferometer; m1 = 0.06
Recorded measurements of speed of sound, one per entry
Property name: speed of sound (m/s)

# Compound, Experimental value
records = [
    ("COc1cc(-c2cc(-c3ccc(Cl)cc3)[nH]c(=O)c2C#N)ccc1O + C[S+](C)[O-]", 1455.9),
    ("COc1cc(-c2cc(-c3ccccc3)[nH]c(=O)c2C#N)ccc1O + C[S+](C)[O-]", 1455),
    ("COc1cc(-c2cc(-c3ccc(O)cc3)[nH]c(=O)c2C#N)ccc1O + C[S+](C)[O-]", 1455.6),
    ("COc1cc(-c2cc(-c3ccccc3O)[nH]c(=O)c2C#N)ccc1O + C[S+](C)[O-]", 1455.2),
]

###

- Assay summary: mn = molality of the nth substance listed, in mol/kg
- Applied conditions: 308.15 K; 100 kPa; Liquid; Vibrating tube method; m1 = 0.06
± gives the expanded uncertainty stated by the source.
Recorded measurements of mass density, one per entry
Property name: mass density

# Compound, Experimental value
records = [
    ("COc1cc(-c2cc(-c3ccc(Cl)cc3)[nH]c(=O)c2C#N)ccc1O + C[S+](C)[O-]", "1089.98 ± 1 kg/m3"),
    ("COc1cc(-c2cc(-c3ccccc3O)[nH]c(=O)c2C#N)ccc1O + C[S+](C)[O-]", "1089.66 ± 1 kg/m3"),
    ("COc1cc(-c2cc(-c3ccccc3)[nH]c(=O)c2C#N)ccc1O + C[S+](C)[O-]", "1088.74 ± 1 kg/m3"),
    ("COc1cc(-c2cc(-c3ccc(O)cc3)[nH]c(=O)c2C#N)ccc1O + C[S+](C)[O-]", "1089.69 ± 1 kg/m3"),
]

###

- Assay summary: mn = molality of the nth substance listed, in mol/kg
- Applied conditions: 318.15 K; 100 kPa; Liquid; Capillary tube (Ostwald / Ubbelohde) method; m1 = 0.02
± gives the expanded uncertainty stated by the source.
Recorded measurements of viscosity, one per entry

# Compound, viscosity
data = [
    ("COc1cc(-c2cc(-c3ccc(Cl)cc3)[nH]c(=O)c2C#N)ccc1O + C[S+](C)[O-]", "1.294 ± 0.23 mPa·s"),
    ("COc1cc(-c2cc(-c3ccccc3O)[nH]c(=O)c2C#N)ccc1O + C[S+](C)[O-]", "1.287 ± 0.23 mPa·s"),
    ("COc1cc(-c2cc(-c3ccc(O)cc3)[nH]c(=O)c2C#N)ccc1O + C[S+](C)[O-]", "1.312 ± 0.24 mPa·s"),
    ("COc1cc(-c2cc(-c3ccccc3)[nH]c(=O)c2C#N)ccc1O + C[S+](C)[O-]", "1.276 ± 0.23 mPa·s"),
]

###

- Assay summary: mn = molality of the nth substance listed, in mol/kg
- Applied conditions: 308.15 K; 100 kPa; Liquid; Vibrating tube method; m1 = 0.04
Property name: mass density (kg/m3)

# Compound, Property name, Experimental value
measured = [
    ("COc1cc(-c2cc(-c3ccccc3O)[nH]c(=O)c2C#N)ccc1O + C[S+](C)[O-]", "mass density", 1088.47),
    ("COc1cc(-c2cc(-c3ccc(O)cc3)[nH]c(=O)c2C#N)ccc1O + C[S+](C)[O-]", "mass density", 1088.48),
    ("COc1cc(-c2cc(-c3ccccc3)[nH]c(=O)c2C#N)ccc1O + C[S+](C)[O-]", "mass density", 1087.93),
    ("COc1cc(-c2cc(-c3ccc(Cl)cc3)[nH]c(=O)c2C#N)ccc1O + C[S+](C)[O-]", "mass density", 1088.83),
]

###

Recorded measurements of speed of sound, one per entry
- Assay summary: mn = molality of the nth substance listed, in mol/kg
- Applied conditions: 298.15 K; 100 kPa; Liquid; Frequency=3 MHz; Sing-around technique in a fixed-path interferometer; m1 = 0.02

# Molecule, speed of sound, m/s
records = [
    ("COc1cc(-c2cc(-c3ccc(Cl)cc3)[nH]c(=O)c2C#N)ccc1O + C[S+](C)[O-]", 1487.2),
    ("COc1cc(-c2cc(-c3ccc(O)cc3)[nH]c(=O)c2C#N)ccc1O + C[S+](C)[O-]", 1487.3),
    ("COc1cc(-c2cc(-c3ccccc3O)[nH]c(=O)c2C#N)ccc1O + C[S+](C)[O-]", 1487),
    ("COc1cc(-c2cc(-c3ccccc3)[nH]c(=O)c2C#N)ccc1O + C[S+](C)[O-]", 1486.8),
]

###

Recorded measurements of speed of sound, one per entry
- Assay summary: mn = molality of the nth substance listed, in mol/kg
- Applied conditions: 298.15 K; 100 kPa; Liquid; Frequency=3 MHz; Sing-around technique in a fixed-path interferometer; m1 = 0.04
Property name: speed of sound (m/s)

# Molecule, Property name, Experimental value
measured = [
    ("COc1cc(-c2cc(-c3ccccc3)[nH]c(=O)c2C#N)ccc1O + C[S+](C)[O-]", "speed of sound", 1488),
    ("COc1cc(-c2cc(-c3ccc(Cl)cc3)[nH]c(=O)c2C#N)ccc1O + C[S+](C)[O-]", "speed of sound", 1488.4),
    ("COc1cc(-c2cc(-c3ccccc3O)[nH]c(=O)c2C#N)ccc1O + C[S+](C)[O-]", "speed of sound", 1488.6),
    ("COc1cc(-c2cc(-c3ccc(O)cc3)[nH]c(=O)c2C#N)ccc1O + C[S+](C)[O-]", "speed of sound", 1488.9),
]

###

- Assay summary: mn = molality of the nth substance listed, in mol/kg
- Applied conditions: 308.15 K; 100 kPa; Liquid; Capillary tube (Ostwald / Ubbelohde) method; m1 = 0.04
Property name: viscosity (mPa·s)

# Molecule, Experimental value
data = [
    ("COc1cc(-c2cc(-c3ccc(Cl)cc3)[nH]c(=O)c2C#N)ccc1O + C[S+](C)[O-]", 1.614),
    ("COc1cc(-c2cc(-c3ccc(O)cc3)[nH]c(=O)c2C#N)ccc1O + C[S+](C)[O-]", 1.623),
    ("COc1cc(-c2cc(-c3ccccc3)[nH]c(=O)c2C#N)ccc1O + C[S+](C)[O-]", 1.603),
    ("COc1cc(-c2cc(-c3ccccc3O)[nH]c(=O)c2C#N)ccc1O + C[S+](C)[O-]", 1.608),
]

###

- Assay summary: mn = molality of the nth substance listed, in mol/kg
- Applied conditions: 318.15 K; 100 kPa; Liquid; Vibrating tube method; m1 = 0.08
± gives the expanded uncertainty stated by the source.

# Molecule, mass density
rows = [
    ("COc1cc(-c2cc(-c3ccc(Cl)cc3)[nH]c(=O)c2C#N)ccc1O + C[S+](C)[O-]", "1080.99 ± 1 kg/m3"),
    ("COc1cc(-c2cc(-c3ccccc3O)[nH]c(=O)c2C#N)ccc1O + C[S+](C)[O-]", "1080.71 ± 1 kg/m3"),
    ("COc1cc(-c2cc(-c3ccc(O)cc3)[nH]c(=O)c2C#N)ccc1O + C[S+](C)[O-]", "1080.74 ± 1 kg/m3"),
    ("COc1cc(-c2cc(-c3ccccc3)[nH]c(=O)c2C#N)ccc1O + C[S+](C)[O-]", "1079.75 ± 1 kg/m3"),
]

###

Recorded measurements of speed of sound, one per entry
- Assay summary: mn = molality of the nth substance listed, in mol/kg
- Applied conditions: 308.15 K; 100 kPa; Liquid; Frequency=3 MHz; Sing-around technique in a fixed-path interferometer; m1 = 0.08
± gives the expanded uncertainty stated by the source.

# Compound, speed of sound
records = [
    ("COc1cc(-c2cc(-c3ccccc3O)[nH]c(=O)c2C#N)ccc1O + C[S+](C)[O-]", "1456.3 ± 1.3 m/s"),
    ("COc1cc(-c2cc(-c3ccc(O)cc3)[nH]c(=O)c2C#N)ccc1O + C[S+](C)[O-]", "1456.5 ± 1.3 m/s"),
    ("COc1cc(-c2cc(-c3ccc(Cl)cc3)[nH]c(=O)c2C#N)ccc1O + C[S+](C)[O-]", "1456.7 ± 1.3 m/s"),
    ("COc1cc(-c2cc(-c3ccccc3)[nH]c(=O)c2C#N)ccc1O + C[S+](C)[O-]", "1456 ± 1.3 m/s"),
]

###

Recorded measurements of speed of sound, one per entry
- Assay summary: mn = molality of the nth substance listed, in mol/kg
- Applied conditions: 318.15 K; 100 kPa; Liquid; Frequency=3 MHz; Sing-around technique in a fixed-path interferometer; m1 = 0.02

# Compound, speed of sound (m/s)
data = [
    ("COc1cc(-c2cc(-c3ccccc3O)[nH]c(=O)c2C#N)ccc1O + C[S+](C)[O-]", 1419.5),
    ("COc1cc(-c2cc(-c3ccc(Cl)cc3)[nH]c(=O)c2C#N)ccc1O + C[S+](C)[O-]", 1419.9),
    ("COc1cc(-c2cc(-c3ccccc3)[nH]c(=O)c2C#N)ccc1O + C[S+](C)[O-]", 1419.1),
    ("COc1cc(-c2cc(-c3ccc(O)cc3)[nH]c(=O)c2C#N)ccc1O + C[S+](C)[O-]", 1420.1),
]
